Decomposition efficiency of genistin family in defatted soybean reference
# Tested on: Crude diglycosidase
# method-description: Examination of pH in the conversion into isoflavone aglycons by diglycosidase using soybean materials
# Assay type: biochemical, Penicillium multicolor IAM7153
# Design: concentration or dose not given beside the values
# assay-setup: pH7.8; heat treatment of enzyme: no; reaction time 3 h
readout-label: Decomposition efficiency of genistin family in defatted soybean (%)

| structure-smiles-string | study-system | measurement |
| --- | --- | --- |
| CC(=O)OC[C@H]1O[C@@H](Oc2cc(O)c3c(=O)c(-c4ccc(O)cc4)coc3c2)[C@H](O)[C@@H](O)[C@@H]1O | Crude diglycosidase | 0.8 |
| O=C(O)CC(=O)OC[C@H]1O[C@@H](Oc2cc(O)c3c(=O)c(-c4ccc(O)cc4)coc3c2)[C@H](O)[C@@H](O)[C@@H]1O | Crude diglycosidase | 44.4 |
| O=c1c(-c2ccc(O)cc2)coc2cc(O[C@@H]3O[C@H](CO)[C@@H](O)[C@H](O)[C@H]3O)cc(O)c12 | Crude diglycosidase | 12.3 |
| O=c1c(-c2ccc(O)cc2)coc2cc(O)cc(O)c12 | Crude diglycosidase | 42.5 |

###

# Test system: Crude diglycosidase
# method-description: Examination of pH in the conversion into isoflavone aglycons by diglycosidase using soybean materials
# Format: biochemical, Penicillium multicolor IAM7153
# assay-setup: pH2.6; heat treatment of enzyme: no; reaction time 3 h
readout-label: Decomposition efficiency of glycitin family in defatted soybean

| structure-smiles-string | measurement |
| --- | --- |
| COc1cc2c(=O)c(-c3ccc(O)cc3)coc2cc1O[C@@H]1O[C@H](COC(C)=O)[C@@H](O)[C@H](O)[C@H]1O | not detected |
| COc1cc2c(=O)c(-c3ccc(O)cc3)coc2cc1O | not detected |
| COc1cc2c(=O)c(-c3ccc(O)cc3)coc2cc1O[C@@H]1O[C@H](CO)[C@@H](O)[C@H](O)[C@H]1O | not detected |
| COc1cc2c(=O)c(-c3ccc(O)cc3)coc2cc1O[C@@H]1O[C@H](COC(=O)CC(=O)O)[C@@H](O)[C@H](O)[C@H]1O | 100.0% |

###

# Test system: Crude diglycosidase
# method-description: Examination of pH in the conversion into isoflavone aglycons by diglycosidase using soybean materials
# Format: biochemical, Penicillium multicolor IAM7153
# assay-setup: pH11.6; heat treatment of enzyme: yes; reaction time 6 h
Below, each entry is listed with its recorded Decomposition efficiency of daidzin family in soymilk.
readout-label: Decomposition efficiency of daidzin family in soymilk (%)

| compound | measurement |
| --- | --- |
| O=c1c(-c2ccc(O)cc2)coc2cc(O[C@@H]3O[C@H](CO)[C@@H](O)[C@H](O)[C@H]3O)ccc12 [daidzin] | 44.6 |
| O=C(O)CC(=O)OC[C@H]1O[C@@H](Oc2ccc3c(=O)c(-c4ccc(O)cc4)coc3c2)[C@H](O)[C@@H](O)[C@@H]1O [malonyldaidzin, 6″-O-malonyldaidzin] | 46.1 |
| O=c1c(-c2ccc(O)cc2)coc2cc(O)ccc12 [daidzein] | 9.3 |

###

# Tested on: Crude diglycosidase
# method-description: Examination of pH in the conversion into isoflavone aglycons by diglycosidase using soybean materials
# Assay type: biochemical, Penicillium multicolor IAM7153
# assay-setup: pH3, heat treatment of enzyme no, reaction time 6 h, 55° C.
This section presents compounds with their documented Decomposition efficiency of daidzin family in roasted soy flour values.
readout-label: Decomposition efficiency of daidzin family in roasted soy flour

| compound | measurement |
| --- | --- |
| O=c1c(-c2ccc(O)cc2)coc2cc(O)ccc12 [daidzein] | 59.3 |
| CC(=O)OC[C@H]1O[C@@H](Oc2ccc3c(=O)c(-c4ccc(O)cc4)coc3c2)[C@H](O)[C@@H](O)[C@@H]1O [acetyldaidzin, 6″-O-acetyldaidzin] | 40.7 |

###

Recorded Decomposition efficiency: ratio of each glycoside/aglycon within its isoflavone family by entry
# Test system: Crude diglycosidase
# method-description: Examination of substrate concentration in the conversion into isoflavone aglycons by diglycosidase using soybean materials;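 note: percent of the isoflavone family total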
# Assay type: biochemical, Penicillium multicolor IAM7153
# assay-setup: soymilk, substrate concentration 5%, heat treatment of enzyme no, reaction time 1 h
readout-label: Decomposition efficiency: ratio of each glycoside/aglycon within its isoflavone family (%)

| structure-smiles-string | scale-unit | measurement |
| --- | --- | --- |
| O=C(O)CC(=O)OC[C@H]1O[C@@H](Oc2ccc3c(=O)c(-c4ccc(O)cc4)coc3c2)[C@H](O)[C@@H](O)[C@@H]1O | % | 34.2 |
| COc1cc2c(=O)c(-c3ccc(O)cc3)coc2cc1O | % | 75.4 |
| COc1cc2c(=O)c(-c3ccc(O)cc3)coc2cc1O[C@@H]1O[C@H](COC(=O)CC(=O)O)[C@@H](O)[C@H](O)[C@H]1O | % | 24.6 |
| O=C(O)CC(=O)OC[C@H]1O[C@@H](Oc2cc(O)c3c(=O)c(-c4ccc(O)cc4)coc3c2)[C@H](O)[C@@H](O)[C@@H]1O | % | 24.9 |

###

The entries below come with measured Decomposition efficiency of glycitin family in concentrated soybean protein values attached.
# System: Crude diglycosidase
# method-description: Examination of pH in the conversion into isoflavone aglycons by diglycosidase using soybean materials
# Format: biochemical, Penicillium multicolor IAM7153
# assay-setup: pH6.6; heat treatment of enzyme: yes; reaction time 6 h
readout-label: Decomposition efficiency of glycitin family in concentrated soybean protein

| compound | measurement |
| --- | --- |
| COc1cc2c(=O)c(-c3ccc(O)cc3)coc2cc1O[C@@H]1O[C@H](COC(C)=O)[C@@H](O)[C@H](O)[C@H]1O [acetylglycitin, 6″-O-acetylglycitin] | 35.2% |
| COc1cc2c(=O)c(-c3ccc(O)cc3)coc2cc1O[C@@H]1O[C@H](COC(=O)CC(=O)O)[C@@H](O)[C@H](O)[C@H]1O [malonylglycitin, 6″-O-malonylglycitin] | 0.4% |
| COc1cc2c(=O)c(-c3ccc(O)cc3)coc2cc1O [glycitein] | 11.1% |
| COc1cc2c(=O)c(-c3ccc(O)cc3)coc2cc1O[C@@H]1O[C@H](CO)[C@@H](O)[C@H](O)[C@H]1O [glycitin] | 53.3% |

###

# System: Crude diglycosidase
# method-description: Examination of pH in the conversion into isoflavone aglycons by diglycosidase using soybean materials
# Assay type: biochemical, Penicillium multicolor IAM7153
# assay-setup: pH3.5; heat treatment of enzyme: no; reaction time 3 h
readout-label: Decomposition efficiency of daidzin family in soymilk

| structure-smiles-string | measurement |
| --- | --- |
| O=c1c(-c2ccc(O)cc2)coc2cc(O)ccc12 | 84.9% |
| O=c1c(-c2ccc(O)cc2)coc2cc(O[C@@H]3O[C@H](CO)[C@@H](O)[C@H](O)[C@H]3O)ccc12 | not detected |
| CC(=O)OC[C@H]1O[C@@H](Oc2ccc3c(=O)c(-c4ccc(O)cc4)coc3c2)[C@H](O)[C@@H](O)[C@@H]1O | not detected |
| O=C(O)CC(=O)OC[C@H]1O[C@@H](Oc2ccc3c(=O)c(-c4ccc(O)cc4)coc3c2)[C@H](O)[C@@H](O)[C@@H]1O | 15.1% |

###

# Test system: Crude diglycosidase
# method-description: Examination of temperature in the conversion into isoflavone aglycons by diglycosidase using soybean materials
# Assay type: biochemical, Penicillium multicolor IAM7153
# assay-setup: 80 °C; heat treatment of enzyme: no; 1 h
readout-label: Decomposition efficiency of glycitin family in soymilk (%)

| molecule | measurement |
| --- | --- |
| COc1cc2c(=O)c(-c3ccc(O)cc3)coc2cc1O [glycitein] | 45.7 |
| COc1cc2c(=O)c(-c3ccc(O)cc3)coc2cc1O[C@@H]1O[C@H](COC(=O)CC(=O)O)[C@@H](O)[C@H](O)[C@H]1O [malonylglycitin, 6″-O-malonylglycitin] | 43.6 |
| COc1cc2c(=O)c(-c3ccc(O)cc3)coc2cc1O[C@@H]1O[C@H](CO)[C@@H](O)[C@H](O)[C@H]1O [glycitin] | 10.7 |

###

# Tested on: Crude diglycosidase
# method-description: Examination of substrate concentration in the conversion into isoflavone aglycons by diglycosidase using soybean materials;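 note: percent of the isoflavone family total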
# Format: biochemical, Penicillium multicolor IAM7153
# assay-setup: soymilk, substrate concentration 5%, heat treatment of enzyme yes, reaction time 6 h
This section presents molecules with their documented Decomposition efficiency: ratio of each glycoside/aglycon within its isoflavone family values.
readout-label: Decomposition efficiency: ratio of each glycoside/aglycon within its isoflavone family (%)

| molecule | scale-unit | measurement |
| --- | --- | --- |
| COc1cc2c(=O)c(-c3ccc(O)cc3)coc2cc1O[C@@H]1O[C@H](CO)[C@@H](O)[C@H](O)[C@H]1O [glycitin] | % | 56.7 |
| O=c1c(-c2ccc(O)cc2)coc2cc(O[C@@H]3O[C@H](CO)[C@@H](O)[C@H](O)[C@H]3O)ccc12 [daidzin] | % | 40.5 |
| O=C(O)CC(=O)OC[C@H]1O[C@@H](Oc2cc(O)c3c(=O)c(-c4ccc(O)cc4)coc3c2)[C@H](O)[C@@H](O)[C@@H]1O [malonylgenistin, 6″-O-malonylgenistin] | % | 52.5 |
| COc1cc2c(=O)c(-c3ccc(O)cc3)coc2cc1O[C@@H]1O[C@H](COC(=O)CC(=O)O)[C@@H](O)[C@H](O)[C@H]1O [malonylglycitin, 6″-O-malonylglycitin] | % | 43.3 |
